Where these numbers come from: patent US7250442B2

- Test System: human MR (Homo sapiens)
- Sequence (P08235 1-984): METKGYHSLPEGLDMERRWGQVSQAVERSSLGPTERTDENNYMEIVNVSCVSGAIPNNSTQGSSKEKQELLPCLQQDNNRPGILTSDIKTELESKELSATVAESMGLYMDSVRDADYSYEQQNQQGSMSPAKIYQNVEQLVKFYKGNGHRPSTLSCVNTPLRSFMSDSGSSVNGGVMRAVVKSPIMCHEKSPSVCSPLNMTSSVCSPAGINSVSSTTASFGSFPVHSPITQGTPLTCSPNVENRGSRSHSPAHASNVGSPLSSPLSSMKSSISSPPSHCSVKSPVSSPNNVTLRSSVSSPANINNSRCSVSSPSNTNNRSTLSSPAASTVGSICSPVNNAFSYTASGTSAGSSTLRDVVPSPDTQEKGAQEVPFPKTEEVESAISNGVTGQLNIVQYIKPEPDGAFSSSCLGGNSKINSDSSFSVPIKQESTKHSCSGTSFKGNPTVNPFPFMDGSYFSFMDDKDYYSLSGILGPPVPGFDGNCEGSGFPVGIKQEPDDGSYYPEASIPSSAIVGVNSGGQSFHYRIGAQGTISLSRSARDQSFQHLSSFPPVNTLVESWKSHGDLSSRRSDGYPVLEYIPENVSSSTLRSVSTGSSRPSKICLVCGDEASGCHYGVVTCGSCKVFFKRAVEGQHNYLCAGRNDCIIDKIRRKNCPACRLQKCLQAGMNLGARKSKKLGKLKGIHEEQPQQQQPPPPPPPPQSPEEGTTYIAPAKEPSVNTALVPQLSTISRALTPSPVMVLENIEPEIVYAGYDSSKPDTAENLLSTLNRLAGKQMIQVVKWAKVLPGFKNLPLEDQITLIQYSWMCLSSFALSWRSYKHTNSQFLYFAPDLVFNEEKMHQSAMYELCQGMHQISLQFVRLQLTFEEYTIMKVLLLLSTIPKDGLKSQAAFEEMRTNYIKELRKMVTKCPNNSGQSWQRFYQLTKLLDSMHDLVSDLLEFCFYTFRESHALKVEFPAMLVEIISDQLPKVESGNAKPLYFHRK
pKi: −log10 of the molar value.
Measured pKi of individual entries

Observe how each entry below is paired with its result.
| Molecule | Test System | pKi |
| --- | --- | --- |
| COc1ccc(-c2nc(CN3C(=O)C(c4cc(C)c(O)c(C)c4)(c4cc(C)c(O)c(C)c4)c4ccccc43)cs2)cc1 [Example 94] | human MR (Homo sapiens) | ≥ 6.30 |
| Cc1cc(C2(c3cc(C)c(O)c(C)c3)C(=O)N(Cc3ccc(OC(F)(F)F)cc3)c3ccccc32)cc(C)c1O [Example 67] | human MR (Homo sapiens) | ≥ 6.30 |

We now examine a further molecule.
The molecule listed as Cc1cc(C2(c3cc(C)c(O)c(C)c3)C(=O)N(Cc3ccccc3Cl)c3ccccc32)cc(C)c1O [Example 11] has a reported pKi of ≥ 6.30

----------
- Test System: glucocorticoid receptor (Homo sapiens, UniProt P04150)
- Sequence (P04150 1-777): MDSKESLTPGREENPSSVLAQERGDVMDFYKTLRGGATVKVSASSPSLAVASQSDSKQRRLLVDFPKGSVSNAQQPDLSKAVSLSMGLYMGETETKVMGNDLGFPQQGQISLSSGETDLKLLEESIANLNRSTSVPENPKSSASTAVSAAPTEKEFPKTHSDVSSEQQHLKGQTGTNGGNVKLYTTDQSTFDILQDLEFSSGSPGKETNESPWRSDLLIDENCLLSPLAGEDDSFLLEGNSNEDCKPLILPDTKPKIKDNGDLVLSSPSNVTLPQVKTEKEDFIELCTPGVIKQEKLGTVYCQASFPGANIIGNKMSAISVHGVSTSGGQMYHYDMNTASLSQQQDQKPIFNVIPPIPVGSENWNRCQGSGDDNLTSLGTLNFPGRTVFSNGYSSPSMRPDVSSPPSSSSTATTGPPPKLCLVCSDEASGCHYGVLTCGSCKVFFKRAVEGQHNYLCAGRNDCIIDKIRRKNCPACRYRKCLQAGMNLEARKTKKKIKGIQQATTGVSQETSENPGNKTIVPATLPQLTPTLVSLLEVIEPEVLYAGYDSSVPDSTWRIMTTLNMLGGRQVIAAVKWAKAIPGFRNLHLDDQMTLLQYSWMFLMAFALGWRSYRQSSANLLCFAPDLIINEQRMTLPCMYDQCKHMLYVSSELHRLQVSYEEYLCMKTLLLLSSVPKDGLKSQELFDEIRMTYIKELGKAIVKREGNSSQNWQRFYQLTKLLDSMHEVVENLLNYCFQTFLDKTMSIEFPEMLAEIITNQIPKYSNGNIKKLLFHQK
Test Readout: Ki

| Smiles Code | Test System | Ki |
| --- | --- | --- |
| Cc1cc(C2(c3cc(C)c(O)c(C)c3)C(=O)N(Cc3ccccc3C#N)c3ccccc32)cc(C)c1O | glucocorticoid receptor (Homo sapiens, UniProt P04150) | ≤ 0.5 µM |
| Cc1cc(C2(c3cc(C)c(O)c(C)c3)C(=O)N(Cc3ccc(O)cc3)c3ccccc32)cc(C)c1O | glucocorticoid receptor (Homo sapiens, UniProt P04150) | ≤ 0.5 µM |
| O=C1N(Cc2ccccc2)c2ccccc2C1(c1cc(Cl)c(O)c(Cl)c1)c1cc(Cl)c(O)c(Cl)c1 | glucocorticoid receptor (Homo sapiens, UniProt P04150) | ≤ 0.5 µM |
| Cc1cc(C2(c3cc(C)c(O)c(C)c3)C(=O)N(Cc3ccc(C(F)(F)F)cc3C(F)(F)F)c3ccccc32)cc(C)c1O | glucocorticoid receptor (Homo sapiens, UniProt P04150) | ≤ 1 µM |

We now examine a further molecule.
The molecule listed as COc1ccc(C(=O)CN2C(=O)C(c3cc(C)c(O)c(C)c3)(c3cc(C)c(O)c(C)c3)c3ccccc32)cc1 has a reported Ki of ≤ 0.5 µM

----------
- Test System: UniProtKB P08235
pKi: −log10 of the molar value.
Test Readout: pKi

| Smiles Code | Result |
| --- | --- |
| Cc1cc(C2(c3cc(C)c(O)c(C)c3)C(=O)N(c3ccccc3)c3ccccc32)cc(C)c1O | ≥ 6.30 |

The molecule listed as Cc1ccc(N2C(=O)C(c3cc(C)c(O)c(C)c3)(c3cc(C)c(O)c(C)c3)c3ccccc32)cc1 has a reported pKi of ≥ 6.30

----------
Measured pKi of individual entries
- Test System: glucocorticoid receptor (Homo sapiens, UniProt P04150)
- Sequence (P04150 1-777): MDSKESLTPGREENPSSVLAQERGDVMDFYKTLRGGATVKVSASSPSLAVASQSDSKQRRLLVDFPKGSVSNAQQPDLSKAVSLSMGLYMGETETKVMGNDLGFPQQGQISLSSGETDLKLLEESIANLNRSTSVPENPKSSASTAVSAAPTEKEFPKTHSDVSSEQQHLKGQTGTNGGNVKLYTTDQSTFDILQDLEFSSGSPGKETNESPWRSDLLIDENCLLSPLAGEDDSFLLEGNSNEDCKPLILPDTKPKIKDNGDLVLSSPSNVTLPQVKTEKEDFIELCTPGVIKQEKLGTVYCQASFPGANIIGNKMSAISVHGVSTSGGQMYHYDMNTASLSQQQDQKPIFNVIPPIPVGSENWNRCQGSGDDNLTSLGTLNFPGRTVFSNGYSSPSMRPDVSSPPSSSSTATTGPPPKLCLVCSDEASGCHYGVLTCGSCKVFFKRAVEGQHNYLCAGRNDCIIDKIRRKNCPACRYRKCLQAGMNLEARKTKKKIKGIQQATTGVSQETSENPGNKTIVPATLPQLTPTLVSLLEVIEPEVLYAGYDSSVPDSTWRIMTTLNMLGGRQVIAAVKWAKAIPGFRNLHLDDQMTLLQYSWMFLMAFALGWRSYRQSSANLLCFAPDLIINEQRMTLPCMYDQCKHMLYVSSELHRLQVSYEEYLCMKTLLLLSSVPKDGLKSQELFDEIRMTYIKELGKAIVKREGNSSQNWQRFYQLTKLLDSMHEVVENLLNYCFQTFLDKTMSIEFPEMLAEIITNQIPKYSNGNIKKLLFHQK
pKi: −log10 of the molar value.

The molecule listed as COc1nccc(N2C(=O)C(c3cc(C)c(O)c(C)c3)(c3cc(C)c(O)c(C)c3)c3ccccc32)n1 has a reported pKi of ≥ 6.30

The molecule listed as Cc1cc(C2(c3cc(C)c(O)c(C)c3)C(=O)N(Cc3c(F)cccc3Cl)c3ccccc32)cc(C)c1O has a reported pKi of ≥ 6.30

The molecule listed as Cc1cc(C2(c3cc(C)c(O)c(C)c3)C(=O)N(Cc3ccc(OCc4ccccc4)cc3)c3ccccc32)cc(C)c1O has a reported pKi of ≥ 6.00

The molecule listed as Cc1ccc2c(c1)C(c1cc(C)c(O)c(C)c1)(c1cc(C)c(O)c(C)c1)C(=O)N2Cc1csc(C)n1 has a reported pKi of ≥ 5.00

The molecule listed as Cc1cc(C2(c3ccc(O)cc3)C(=O)N(Cc3ccccc3Cl)c3ccccc32)cc(C)c1O (stereo not drawn) has a reported pKi of ≥ 6.30

The molecule listed as Cc1cc(C2(c3cc(C)c(O)c(C)c3)C(=O)N(Cc3ccc(Cl)c(Cl)c3)c3ccccc32)cc(C)c1O has a reported pKi of ≥ 6.30

The molecule listed as Cc1cc(C2(c3cc(C)c(O)c(C)c3)C(=O)N(c3cccnc3)c3ccccc32)cc(C)c1O has a reported pKi of ≥ 6.30

The molecule listed as Cc1cc(C2(c3cc(C)c(O)c(C)c3)C(=O)N(c3ccccc3Cl)c3ccccc32)cc(C)c1O has a reported pKi of ≥ 6.30

The molecule listed as Cc1cc(C2(c3cc(C)c(O)c(C)c3)C(=O)N(Cc3ccccc3Cl)c3ccc(Br)cc32)cc(C)c1O has a reported pKi of ≥ 6.00

The molecule listed as Cc1cc(C2(c3cc(C)c(O)c(C)c3)C(=O)N(CC#N)c3ccccc32)cc(C)c1O has a reported pKi of ≥ 6.30

The molecule listed as COc1ccc(CN2C(=O)C(c3cc(C)c(O)c(C)c3)(c3cc(C)c(O)c(C)c3)c3ccccc32)cc1 has a reported pKi of ≥ 6.30

The molecule listed as Cc1cc(C2(c3cc(C)c(O)c(C)c3)C(=O)N(Cc3ccccc3N)c3ccccc32)cc(C)c1O has a reported pKi of ≥ 6.30

The molecule listed as Cc1cc(C2(c3cc(C)c(O)c(C)c3)C(=O)N(CCc3scnc3C)c3ccccc32)cc(C)c1O has a reported pKi of ≥ 6.30

The molecule listed as Cc1cc(C2(c3cc(C)c(O)c(C)c3)C(=O)N(Cc3c(C)cccc3C)c3ccccc32)cc(C)c1O has a reported pKi of ≥ 6.30

The molecule listed as Cc1cc(C2(c3cc(C)c(O)c(C)c3)C(=O)N(Cc3c(F)cccc3F)c3ccccc32)cc(C)c1O has a reported pKi of ≥ 6.30
